# MEASUREMENT_TARGET: p38a/PRAK (Homo sapiens (Human), UniProt Q16539)
# ASSAY_EXPLANATION: biochemical
# EXPERIMENTAL_SETUP: 10-point 1:3 dilution, top dose 300 μM; 10 μM ATP, 2 h incubation; read-out: p38a/PRAK Enzyme pIC50 (converted)
MEASURED_ATTRIBUTE: IC50 (µM)

1. [2H]C([2H])(Oc1cc(C)n(-c2cc(-n3ccnc(C(C)(C)O)c3=O)ncc2C)c(=O)c1Cl)c1ncc(F)cc1Cl (single isomer, unassigned) [Example 22A]
2. [2H]C([2H])(Oc1cc(C)n(-c2cc(-n3cccc(C(C)(C)O)c3=O)ncc2C)c(=O)c1Cl)c1ncc(F)cc1Cl (single isomer, unassigned) [Example 23A]
Task for the reader: decide whether 1 or 2 has the larger IC50. Output the label that corresponds to your choice.
2
(2: 6.31 µM, 1: 3.98 µM)

====

# MEASUREMENT_TARGET: p38a/PRAK (Homo sapiens (Human), UniProt Q16539)
# ASSAY_EXPLANATION: biochemical
# EXPERIMENTAL_SETUP: 10-point 1:3 dilution, top dose 300 μM; 10 μM ATP, 2 h incubation; read-out: p38a/PRAK Enzyme pIC50 (converted)
# Excerpt: Expression vectors of the recombinant MK2 and PRAK kinases were constructed by cloning of the codon optimized gene sequences of MK2 (Uniprot ID P49137, amino acid fragment F46-H400), or PRAK (Uniprot ID Q81W41, amino acid fragment M1-Q471) into pGEX-4T1 (GE) for over expression of these kinases with N-terminal GST-tag. […]
MEASURED_ATTRIBUTE: IC50 (µM)

compound="Cc1cnc(-n2cccc([C@](C)(O)C3CC3)c2=O)cc1-n1c(C)cc(OCc2ncc(F)cc2F)c(Cl)c1=O (single isomer, unassigned) [Example 14A]" units_label=µM measured=3.16

I. Cc1cnc(-n2cccc(C(C)(C)O)c2=O)cc1-n1c(C)nc(OCc2ncc(F)cc2F)c(Cl)c1=O (single isomer, unassigned) [Example 25A]
II. [2H]C([2H])(Oc1cc(C)n(-c2cc(-n3ccc(F)c(C(C)(C)O)c3=O)ncc2C)c(=O)c1Cl)c1ncc(F)cc1F (single isomer, unassigned) [Example 26A]
Sort I and II by IC50 descending and give the first. Answer = label.
I

====

# MEASUREMENT_TARGET: p38a/MK2 (Homo sapiens (Human), UniProt P49137+Q16539)
# Sequence (Q16539 whole entry): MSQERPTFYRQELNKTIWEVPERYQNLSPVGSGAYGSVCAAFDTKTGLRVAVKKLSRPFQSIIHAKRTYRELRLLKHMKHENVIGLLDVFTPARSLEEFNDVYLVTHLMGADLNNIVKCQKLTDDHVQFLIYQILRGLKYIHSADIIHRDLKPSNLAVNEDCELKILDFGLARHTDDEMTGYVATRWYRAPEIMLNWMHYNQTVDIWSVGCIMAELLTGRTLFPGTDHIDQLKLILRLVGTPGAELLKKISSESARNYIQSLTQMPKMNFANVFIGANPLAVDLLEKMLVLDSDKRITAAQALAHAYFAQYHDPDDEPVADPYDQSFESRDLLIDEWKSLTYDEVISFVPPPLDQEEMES
# Sequence (P49137 46-400): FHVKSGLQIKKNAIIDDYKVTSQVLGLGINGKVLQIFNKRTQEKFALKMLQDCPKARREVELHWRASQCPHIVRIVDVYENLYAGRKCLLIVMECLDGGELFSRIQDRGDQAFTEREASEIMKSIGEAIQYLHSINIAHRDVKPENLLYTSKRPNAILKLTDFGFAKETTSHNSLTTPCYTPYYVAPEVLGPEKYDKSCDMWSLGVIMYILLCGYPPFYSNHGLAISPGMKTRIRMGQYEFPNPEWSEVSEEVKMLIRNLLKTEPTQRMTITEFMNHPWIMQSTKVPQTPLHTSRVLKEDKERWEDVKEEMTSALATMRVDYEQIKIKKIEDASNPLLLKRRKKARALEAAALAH
# ASSAY_EXPLANATION: biochemical
# EXPERIMENTAL_SETUP: 10-point 1:3 dilution, top dose 1 μM; 10 μM ATP, 2 h incubation; read-out: p38a/MK2 (1 μM) Enzyme pIC50 (converted)
MEASURED_ATTRIBUTE: IC50

Some entries whose results are on file:
compound="Cc1cnc(-n2cccc(C(C)C)c2=O)cc1-n1c(C)cc(OCc2ncc(F)cc2F)c(Cl)c1=O (single isomer, unassigned) [Example 17B]" measured_attribute=IC50 measured="> 1000 nM"
compound="[2H]C([2H])(Oc1cc(C)n(-c2cc(-n3cccc(C(C)(C)O)c3=O)ncc2C)c(=O)c1Cl)c1ncc(F)cc1Cl (single isomer, unassigned) [Example 23B]" measured_attribute=IC50 measured="> 100 nM"
compound="Cc1ncc(-n2cccc(C(C)(C)O)c2=O)cc1-n1c(C)cc(OCc2ncc(F)cc2F)c(Cl)c1=O (single isomer, unassigned) [Example 16B]" measured_attribute=IC50 measured="> 1000 nM"
compound="[2H]C([2H])(Oc1cc(C)n(-c2cc(-n3ccnc(C(C)(C)O)c3=O)ncc2C)c(=O)c1Cl)c1ncc(C)cc1F (single isomer, unassigned) [Example 28B]" measured_attribute=IC50 measured="> 100 nM"
compound="Cc1ccc(-n2cccc(C(C)(C)O)c2=O)cc1-n1c(C)cc(OCc2ncc(F)cc2F)c(Cl)c1=O (single isomer, unassigned) [Example 2B]" measured_attribute=IC50 measured="> 1000 nM"
compound="Cc1cnc(-n2cccc(C(C)(C)CO)c2=O)cc1-n1c(C)cc(OCc2ncc(F)cc2F)c(Cl)c1=O (single isomer, unassigned) [Example 11B]" measured_attribute=IC50 measured="> 1000 nM"
compound="Cc1cnc(-n2cccc(C3CCOCC3)c2=O)cc1-n1c(C)cc(OCc2ncc(F)cc2F)c(Cl)c1=O (single isomer, unassigned) [Example 8B]" measured_attribute=IC50 measured="> 1000 nM"
compound="Cc1cnc(-n2ccnc(C(C)(C)O)c2=O)cc1-n1c(C)cc(OCc2ncc(F)cc2F)c(Cl)c1=O (single isomer, unassigned) [Example 5B]" measured_attribute=IC50 measured="> 1000 nM"

Measured IC50 (p38a/MK2 (Homo sapiens (Human), UniProt P49137+Q16539)), entry Cc1cnc(-n2cc(C(C)(C)O)ccc2=O)cc1-n1c(C)cc(OCc2ncc(F)cc2F)c(Cl)c1=O (single isomer, unassigned) [Example 13A] : > 1000 nM

The compound Cc1cnc(-n2ccnc(C(C)(C)O)c2=O)cc1-n1c(C)cc(OCc2ncc(F)cc2Cl)c(Cl)c1=O (single isomer, unassigned) [Example 24B] , when measured on p38a/MK2 (Homo sapiens (Human), UniProt P49137+Q16539), yielded IC50 of 2.51 nM

So the reported IC50 for [2H]C([2H])(Oc1cc(C)n(-c2cc(-n3cccc(C(C)(C)O)c3=O)ncc2C)c(=O)c1Cl)c1ncc(F)cc1F (single isomer, unassigned) [Example 18A] , on p38a/MK2 (Homo sapiens (Human), UniProt P49137+Q16539), turned out to be 1.58 nM

The reported p38a/MK2 (Homo sapiens (Human), UniProt P49137+Q16539) IC50 of CCOC(=O)C(C)(C)n1nc(-c2cc(-n3c(C)cc(OCc4ncc(F)cc4F)c(Cl)c3=O)c(C)cn2)ccc1=O (atropisomer, axis not shown) is 20 nM

The observed IC50 for Cc1cnc(-n2ccc(C)c(C(C)(C)O)c2=O)cc1-n1c(C)cc(OCc2ncc(F)cc2F)c(Cl)c1=O (single isomer, unassigned) [Example 15A] when tested with p38a/MK2 (Homo sapiens (Human), UniProt P49137+Q16539) stands at 10 nM

====

# MEASUREMENT_TARGET: p38a/PRAK (Homo sapiens (Human), UniProt Q16539)
# ASSAY_EXPLANATION: biochemical
# EXPERIMENTAL_SETUP: 10-point 1:3 dilution, top dose 300 μM; 10 μM ATP, 2 h incubation; read-out: p38a/PRAK Enzyme pIC50 (converted)
Measured IC50 of individual entries

compound="Cc1ncc(-n2cccc(C(C)(C)O)c2=O)cc1-n1c(C)cc(OCc2ncc(F)cc2F)c(Cl)c1=O (single isomer, unassigned) [Example 16B]" measurement_target="p38a/PRAK (Homo sapiens (Human), UniProt Q16539)" measured_attribute=IC50 measured="> 316 µM"
compound="Cc1cnc(-n2cccc(C(C)(C)O)c2=O)cc1-n1c(C)cc(OCc2ncc(F)cc2Cl)c(Cl)c1=O (single isomer, unassigned) [Example 7B]" measurement_target="p38a/PRAK (Homo sapiens (Human), UniProt Q16539)" measured_attribute=IC50 measured="> 316 µM"

The compound Cc1cnc(-n2ccc(C)c(C(C)(C)O)c2=O)cc1-n1c(C)cc(OCc2ncc(F)cc2F)c(Cl)c1=O (single isomer, unassigned) [Example 15B] showed IC50 equal to > 316 µM

====

Reported IC50 is given for each of the following compounds.
# MEASUREMENT_TARGET: p38a/PRAK (Homo sapiens (Human))
# ASSAY_EXPLANATION: biochemical
# EXPERIMENTAL_SETUP: 10-point 1:3 dilution, top dose 300 μM; 10 μM ATP, 2 h incubation; read-out: p38a/PRAK Enzyme pIC50 (converted)
# Text: Expression vectors of the recombinant MK2 and PRAK kinases were constructed by cloning of the codon optimized gene sequences of MK2 (Uniprot ID P49137, amino acid fragment F46-H400), or PRAK (Uniprot ID Q81W41, amino acid fragment M1-Q471) into pGEX-4T1 (GE) for over expression of these kinases with N-terminal GST-tag. […]

compound="Cc1cnc(-n2cccc(C(C)(C)O)c2=O)cc1-n1c(C)cc(OCc2ncc(F)cc2F)c(Cl)c1=O (single isomer, unassigned) [Example 1B]" measured="> 316 µM"

For the compound Cc1cnc(-n2nccc(C(C)(C)O)c2=O)cc1-n1c(C)cc(OCc2ncc(F)cc2F)c(Cl)c1=O (single isomer, unassigned) [Example 9B] , the measured IC50 on p38a/PRAK (Homo sapiens (Human)) was > 316 µM

Entry Cc1ccc(-n2cccc(C(C)(C)O)c2=O)cc1-n1c(C)cc(OCc2ncc(F)cc2F)c(Cl)c1=O (single isomer, unassigned) [Example 2B] : IC50 on p38a/PRAK (Homo sapiens (Human)) = > 316 µM

====

# MEASUREMENT_TARGET: p38a/PRAK (Homo sapiens (Human), UniProt Q16539)
# ASSAY_EXPLANATION: biochemical
# EXPERIMENTAL_SETUP: 10-point 1:3 dilution, top dose 300 μM; 10 μM ATP, 2 h incubation; read-out: p38a/PRAK Enzyme pIC50 (converted)
MEASURED_ATTRIBUTE: IC50

Worked examples follow.
molecule="Cc1cnc(-n2cccc(C3CCOCC3)c2=O)cc1-n1c(C)cc(OCc2ncc(F)cc2F)c(Cl)c1=O (single isomer, unassigned) [Example 8B]" measurement_target="p38a/PRAK (Homo sapiens (Human), UniProt Q16539)" measured="> 316 µM"
molecule="Cc1cnc(-n2ccnc(C(C)(C)O)c2=O)cc1-n1c(C)cc(OCc2ncc(F)cc2F)c(Cl)c1=O (single isomer, unassigned) [Example 5B]" measurement_target="p38a/PRAK (Homo sapiens (Human), UniProt Q16539)" measured="> 316 µM"

# value of IC50, p38a/PRAK (Homo sapiens (Human), UniProt Q16539), item [2H]C([2H])(Oc1cc(C)n(-c2cc(-n3ccnc(C(C)(C)O)c3=O)ncc2C)c(=O)c1Cl)c1ncc(C)cc1F (single isomer, unassigned) [Example 28B] = > 316 µM
